- testedSystem: T1, membrane-associated human TL1A on transfected HEK293 cells (human, UniProt O95150 1-251)
- T1 construct: whole, on cells
- T1 sequence (looked up): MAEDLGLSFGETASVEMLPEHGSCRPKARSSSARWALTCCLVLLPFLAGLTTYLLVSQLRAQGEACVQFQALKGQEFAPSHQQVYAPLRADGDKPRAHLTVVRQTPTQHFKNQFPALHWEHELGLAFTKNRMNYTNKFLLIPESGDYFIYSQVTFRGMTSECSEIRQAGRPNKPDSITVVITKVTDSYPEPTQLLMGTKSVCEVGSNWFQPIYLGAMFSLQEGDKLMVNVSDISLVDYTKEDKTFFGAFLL
- testName: flow cytometry, HEK293 cells transfected with human TL1A
measurementName: binding result

- Clone L8mod Fab (Fab, V domains shown, Fab) VH: QVQLVQSGAEVKKPGASVKVSCKASGFDIQDTYMHWVRQAPGQGLEWMGRIDPASGHTKYDPKFQGRATITTDTSASTAYLQLSSLRSEDTAVYYCARSGGLPDVWGQGTTVTVSS VL: EIVLTQSPGTLSLSPGERATLSCRASSSVSYMYWYQQKPGQAPRLLIYATSNLASGIPDRFSGSGSGTDFTLTISRLEPEDFAVYYCQQWSGNPRTFGGGTKLEIK: binds
- Clone 3-17L Fab (Fab, V domains shown, Fab) VH: QVQLVQSGAEVKKPGASVKVSCKASGFDIQDTYMHWVRQAPGQGLEWMGRIDPASGHLKYDPKFQGRVTITRDTSASTVYMELSSLRSEDTAVYYCARSGGLPDMWGQGTTVTVSS VL: EIVLTQSPGTLSLSPGERATLSCRASSSVSYMYWYQQKPGQAPRLLIYATSNLASGIPDRFSGSGSGTDFTLTISRLEPEDFAVYYCQQWQGNPRTFGGGTKLEIK: binds
- Clone XL3-15 Fab (Fab, V domains shown, Fab) VH: QVQLVQSGAEVKKPGASVKVSCKASGFDIQDTYMHWVRQAPGQGLEWMGRIDPASGHTKYDPKFQGRATITTDTSASTAYLQLSSLRSEDTAVYYCARSGGLPDFWGQGTTVTVSS VL: EIVLTQSPGTLSLSPGERATLSCRASSSVSYMYWYQQKPGQAPRLLIYATSNLASGIPDRFSGSGSGTDFTLTISRLEPEDFAVYYCQQWSRNPRTFGGGTKLEIK: binds
- Clone H2-5 Fab (Fab, V domains shown, Fab; also called Clone 112-5) VH: QVQLVQSGAEVKKPGASVKVSCKASGFDIQDTYMHWVRQAPGQGLEWMGRIDPASGHYKYDPKFQVRATITTDTSASTAYLQLSSLRSEDTAVYYCARSGGLPDFWGQGTTVTVSS VL: EIVLTQSPGTLSLSPGERATLSCRASSSVSYMYWYQQKPGQAPRLLIYATSNLASGIPDRFSGSGSGTDFTLTISRLEPEDFAVYYCQQWSGNPRTFGGGTKLEIK: binds
- Clone A1 Fab (Fab, V domains shown, Fab) VH: QVQLVQSGAEVKKPGASVKVSCKASGFDIQDTYMHWVRQAPGQGLEWMGRIDPASGHLKYDPKFQNRVTMTRDTSTSTVYMELSSLRSEDTAVYYCARSGGLPDKWGQGTTVTVSS VL: EIVLTQSPGTLSLSPGERATLSCGASSSVSYMYWYQQKPGQAPRLLIYATSNLASGIPDRFSGSGSGTDFTLTISRLEPEDFAVYYCQQWEGNPRTFGGGTKLEIK: binds

Where these numbers come from: patent US20240368263A1
